These entries and their values trace back to patent US11339130B1.

system: Calpain activity in SH-SY5Y cells; experiment: SH-SY5Y + AMC fluorescence assay (Suc-LLVY-AMC substrate); type: cell-based; conditions: read-out: SH-SY5Y + AMC IC50
pIC50: −log10 of the molar value.
# pIC50 per record follows

Study these solved cases before continuing.
{"molecule": "Cc1cc(C)cc(-c2nn(C(F)F)cc2C(=O)NC(Cc2ccccc2)C(=O)C(N)=O)c1 (centres unmarked)", "pIC50": "< 4.60"}
{"molecule": "Cn1cc(C(=O)NC(CCc2ccccc2)C(=O)C(N)=O)c(-c2ccccc2)n1 (centres unmarked)", "pIC50": "< 4.60"}
{"molecule": "COc1ccc(C[C@H](NC(=O)c2oc(C)nc2-c2ccccc2)C(=O)C(N)=O)cc1", "pIC50": "< 4.60"}
{"molecule": "Cn1cc(C(=O)N[C@@H](Cc2ccc(O)cc2)C(=O)C(N)=O)c(-c2ccccc2)n1", "pIC50": "> 5.00"}
{"molecule": "CC(C)n1cc(C(=O)NC(Cc2ccccc2)C(=O)C(N)=O)c(-c2ccc(F)cc2)n1 (centres unmarked)", "pIC50": "4.60 to 5.00"}

Field: next molecule
Considering NC(=O)C(=O)C(Cc1ccccc1)NC(=O)c1cnoc1-c1cccc(F)c1 (centres unmarked) , its pIC50 with Calpain activity in SH-SY5Y cells was recorded as < 4.60
